biological target: Human muscarinic receptor M2 (Homo sapiens, UniProt P08172); construct: host or cells: cell membrane homogenates; test: Human muscarinic receptor assay M2, [3H]AF-DX 384 binding
Sequence (P08172 whole entry): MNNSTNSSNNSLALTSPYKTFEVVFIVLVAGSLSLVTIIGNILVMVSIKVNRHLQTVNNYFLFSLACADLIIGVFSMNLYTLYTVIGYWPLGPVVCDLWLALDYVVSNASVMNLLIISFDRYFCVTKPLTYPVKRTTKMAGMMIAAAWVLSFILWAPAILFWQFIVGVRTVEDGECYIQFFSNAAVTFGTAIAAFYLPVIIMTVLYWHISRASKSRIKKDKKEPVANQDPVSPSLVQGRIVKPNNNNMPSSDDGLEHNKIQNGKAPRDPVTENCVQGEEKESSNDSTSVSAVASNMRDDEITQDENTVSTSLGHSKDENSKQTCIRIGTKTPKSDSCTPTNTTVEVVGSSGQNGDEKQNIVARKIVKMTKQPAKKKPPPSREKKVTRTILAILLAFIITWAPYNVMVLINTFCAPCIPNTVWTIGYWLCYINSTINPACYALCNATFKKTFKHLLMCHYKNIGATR
Reported Property: pKi
The meaning of pKi here: minus log10 of the concentration in molar units.

INSERT INTO assay_data (compound, reported_property, endpoint_result) VALUES
  ('CN1C2CCC1CC(OC(=O)C(CO)(CO)c1ccccc1)C2 (centres unmarked)', 'pKi', 7.27),
  ('CN1C2CCC1CC(OC(=O)C(F)(CO)c1ccccc1)C2 (centres unmarked)', 'pKi', 7.82),
  ('CN1C2CCC1CC(OC(=O)C(C)(CO)c1cccs1)C2 (centres unmarked)', 'pKi', 8.10),
  ('CN1C2CCC1CC(OC(=O)C(C)(CO)c1ccccc1)C2 (centres unmarked)', 'pKi', 7.96),
  ('CCC(CO)(C(=O)OC1CC2CCC(C1)N2C)c1ccccc1 (centres unmarked)', 'pKi', 7.46),
  ('COCC(C)(C(=O)OC1CC2CCC(C1)N2C)c1ccccc1 (centres unmarked)', 'pKi', 7.14),
  ('CN1C2CCC1CC(OC(=O)C(C)(CF)c1ccccc1)C2 (centres unmarked)', 'pKi', 6.96);

Proceed to the following item.
**Q:** Note pKi for the compound shown: CN1C2CCC1CC(OC(=O)C(CO)(CC1CC1)c1ccccc1)C2 (centres unmarked)
**A:** 7.41
